systemName: MAP kinase-activated protein kinase 2 (Homo sapiens, UniProt P49137)
Sequence (P49137 whole entry): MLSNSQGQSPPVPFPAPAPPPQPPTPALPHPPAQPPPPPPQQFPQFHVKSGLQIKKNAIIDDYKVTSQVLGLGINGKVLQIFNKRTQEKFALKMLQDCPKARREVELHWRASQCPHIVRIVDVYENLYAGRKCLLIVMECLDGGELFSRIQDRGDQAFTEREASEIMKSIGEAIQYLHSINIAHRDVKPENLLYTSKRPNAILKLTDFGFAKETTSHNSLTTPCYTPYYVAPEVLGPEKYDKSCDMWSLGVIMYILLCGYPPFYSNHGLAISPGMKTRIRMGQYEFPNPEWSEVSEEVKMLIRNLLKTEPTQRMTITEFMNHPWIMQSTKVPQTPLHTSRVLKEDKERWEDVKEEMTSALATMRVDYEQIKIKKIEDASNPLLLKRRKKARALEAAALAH
methodNotes: Inhibition of MK2 using biotin-LCAYSRALSRQLSSGVSEIRH substrate
measuredQuantity: IC50 (µM)
Quick reminder: number only, in µM, skip the unit.

Solved cases (4 shown):
For reference, reported IC50 for `CCCc1cnc(N)c(CNC(=S)Nc2ccc(NC(=O)OC(C)(C)C)cc2)n1` stands at 0.045

For reference, reported IC50 for `Cc1ccc(NC(=S)NCc2nc(Cl)cnc2N)cc1` stands at 2.7

For reference, reported IC50 for `Nc1ncc(Cl)nc1CNC(=S)NC1CCCCCC1` stands at 35

For reference, reported IC50 for `Nc1ncc(Cl)nc1CNC(=S)NC1CC1` stands at 12

Next item in the queue.
For reference, reported IC50 for `Nc1ncc(Cl)nc1CNC(=S)NCc1ccccc1` stands at 36

Data credit: ChEMBL document CHEMBL1782048
